Recorded measurements of pIC50, one per entry
target: calcitonin receptor (Rattus norvegicus, UniProt P32214); test: calcitonin receptor binding assay (rCalcitonin RBA); conditions: Table 6; read-out: CT receptor binding
Bridge positions count the residues as written; N and C are the ends. Ends that are not written are not given here.
Units for pIC50: none; it is -log10 of a concentration expressed in mol/L.

SUBSTANCE | OBSERVED
TQAQLLRVGCNTATCQVQNLSHRLWQLMGPAGRQDSAPVDPSSPHSY-NH2 (disulfide 10-15 (inferred)) [compound 21] | 7.77
TQAQLLRVGCVLGTCQVQNLSHRLWQLRQDSAPVDPSSPHSY-NH2 (disulfide 10-15 (inferred)) [compound 16] | 7.66

Now consider the entry below.
Consider the substance shown here: H-RVGCGNLSTCQVQNLSHRLWQLMGPAGRQDSAPVDPSSPHSY-NH2 (disulfide 4-10 (inferred)) [compound 22] What is its recorded pIC50?
8.14

====

Target: calcitonin receptor (Rattus norvegicus)
Sequence (P32214 25-516): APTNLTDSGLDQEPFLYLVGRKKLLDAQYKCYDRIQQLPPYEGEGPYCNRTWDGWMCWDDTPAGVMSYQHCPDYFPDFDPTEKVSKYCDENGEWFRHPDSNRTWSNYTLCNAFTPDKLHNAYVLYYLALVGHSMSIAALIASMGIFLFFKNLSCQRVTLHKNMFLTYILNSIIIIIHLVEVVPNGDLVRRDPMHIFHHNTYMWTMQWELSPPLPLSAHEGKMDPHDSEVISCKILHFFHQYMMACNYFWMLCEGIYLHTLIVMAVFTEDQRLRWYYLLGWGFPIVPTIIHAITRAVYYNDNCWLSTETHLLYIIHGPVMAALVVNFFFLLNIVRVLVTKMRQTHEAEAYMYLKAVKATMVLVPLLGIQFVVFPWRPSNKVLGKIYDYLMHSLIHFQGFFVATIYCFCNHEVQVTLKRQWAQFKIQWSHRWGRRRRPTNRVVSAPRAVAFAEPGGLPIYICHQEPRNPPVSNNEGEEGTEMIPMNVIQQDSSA
Test: calcitonin receptor binding assay (rCalcitonin RBA)
Conditions: Table 6; read-out: CT receptor binding
pIC50: −log10 of the molar value. Bridge positions count the residues as written; N and C are the ends.
OBSERVABLE: pIC50

These solved cases illustrate the format of a correct answer.
SUBSTANCE | pIC50
H-TQAQLLRVGCSNLSTCQVQNLSHRLWQLMGPAGRQDSAPVDPSSPHSY-NH2 (disulfide 10-16 (inferred)) [compound 20] | 7.80
H-TQAQLLRVGMVLGTMQVQNLSHRLWQLMGPAGRQDSAPVDPSSPHSY-NH2 [compound 25] | < 6.00
H-GMVLGTMQVQNLSHRLWQLMGPAGRQDSAPVDPSSPHSY-NH2 [compound 26] | < 6.00

Consider the substance shown here: H-VGMVLGTMQVQNLSHRLWQLRQDSAPVDPSSPHSY-NH2 [compound 27] What is its recorded pIC50?
< 6.00

====

Recorded measurements of pIC50, one per entry
Molecular target: amylin receptors (Rattus norvegicus, UniProt P32214)
Construct: This basal forebrain tissue, containing the nucleus accumbens and surrounding regions, was weighed and homogenized; from tissue; host or cells: rat basal forebrain (nucleus accumbens) membranes, male Sprague-Dawley rats
Sequence (P32214 25-516): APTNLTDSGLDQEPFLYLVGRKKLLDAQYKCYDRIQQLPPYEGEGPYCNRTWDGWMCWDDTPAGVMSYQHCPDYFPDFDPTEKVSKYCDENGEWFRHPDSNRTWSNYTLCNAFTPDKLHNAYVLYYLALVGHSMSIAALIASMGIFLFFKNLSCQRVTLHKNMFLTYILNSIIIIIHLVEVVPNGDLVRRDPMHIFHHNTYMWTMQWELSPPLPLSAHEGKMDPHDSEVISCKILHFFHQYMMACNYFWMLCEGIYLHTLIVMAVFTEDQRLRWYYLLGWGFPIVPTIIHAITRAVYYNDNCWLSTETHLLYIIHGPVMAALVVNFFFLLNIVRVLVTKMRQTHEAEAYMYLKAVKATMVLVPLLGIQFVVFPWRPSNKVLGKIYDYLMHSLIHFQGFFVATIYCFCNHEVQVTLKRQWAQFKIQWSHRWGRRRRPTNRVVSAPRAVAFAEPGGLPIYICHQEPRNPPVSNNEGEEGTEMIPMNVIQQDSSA
Assay: amylin radioligand binding assay (125I-rat amylin, nucleus accumbens membranes)
Settings: Table 6; read-out: Amylin receptor binding
Bridge positions count the residues as written; N and C are the ends. Ends that are not written are not given here.
Units for pIC50: none; it is -log10 of a concentration expressed in mol/L.

SUBSTANCE | OBSERVED
TQAQLLRVGCVLGTCQVQNLSHRLWQLMGPAGRQESAPVEPSSPHSY-NH2 (disulfide 10-15 (inferred)) [compound 32] | 7.80

Consider the substance shown here: H-RVGCGNLSTCQVQNLSHRLWQLMGPAGRQDSAPVDPSSPHSY-NH2 (disulfide 4-10 (inferred)) [compound 22] What is its recorded pIC50?
8.62

====

biological target: CGRP receptors (Homo sapiens, UniProt O60894+Q16602); construct: membranes prepared from SK-N-MC cells, known to express CGRP receptors; endogenous in cells; host or cells: SK-N-MC cell membranes; assay: CGRP radioligand binding assay (125I-hCGRP, SK-N-MC cell membranes); settings: Table 6
Sequence (Q16602 23-461): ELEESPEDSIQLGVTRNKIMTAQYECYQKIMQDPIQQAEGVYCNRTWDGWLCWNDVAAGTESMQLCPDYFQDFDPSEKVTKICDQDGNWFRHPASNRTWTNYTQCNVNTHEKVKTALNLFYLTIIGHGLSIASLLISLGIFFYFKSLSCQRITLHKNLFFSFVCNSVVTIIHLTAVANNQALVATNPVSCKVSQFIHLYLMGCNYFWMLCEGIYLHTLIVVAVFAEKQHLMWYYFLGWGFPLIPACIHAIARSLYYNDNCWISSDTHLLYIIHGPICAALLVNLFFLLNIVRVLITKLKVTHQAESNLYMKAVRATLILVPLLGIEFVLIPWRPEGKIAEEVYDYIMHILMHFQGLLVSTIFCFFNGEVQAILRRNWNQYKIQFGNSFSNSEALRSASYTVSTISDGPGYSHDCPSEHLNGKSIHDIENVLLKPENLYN
Sequence (O60894 27-148): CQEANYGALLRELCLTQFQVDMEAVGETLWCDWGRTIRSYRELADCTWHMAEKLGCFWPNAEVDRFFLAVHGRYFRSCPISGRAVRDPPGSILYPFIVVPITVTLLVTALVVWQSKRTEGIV
Bridge positions count the residues as written; N and C are the ends. Ends that are not written are not given here.
Recorded measurements of IC50, one per entry

These solved cases illustrate the format of a correct answer.
SUBSTANCE | IC50
VQNLSHRLWQLMGPAGRQDSAPVDPSSPHSY-NH2 [compound 14] | > 1000 nM
H-VGMVLGTMQVQNLSHRLWQLRQDSAPVDPSSPHSY-NH2 [compound 27] | > 1000 nM

Now consider the entry below.
# value lookup — system CGRP receptors (Homo sapiens, UniProt O60894+Q16602), readout IC50, item H-RVGCGNLSTCQVQNLSHRLWQLMGPAGRQDSAPVDPSSPHSY-NH2 (disulfide 4-10 (inferred)) [compound 22]
35 nM
